Tested on: CCRF-CEM leukemia
Assay: NCI-60 one-dose screen, 48 h (100 = growth as untreated, 0 = no growth, -100 = all killed)
Settings: 10 µM unless noted
Method: Growth inhibition of the CCRF-CEM human tumor cell line is measured as a screen for anti-cancer activity. Cells are grown in 96 well plates and exposed to the test compound for 48 hours. Compounds are tested at a single concentration, which is 10^-5 M for most compounds. The reported endpoint is percent growth (GI% or GIPRCNT), where numbers from 0 - 100% represent growth inhibition, and numbers from -100% - 0 represent cell death. For example, a value of 40 represents 60% growth inhibition. […]
This is part of a sample that, as a whole, favours compounds with a hit. Of some 83,000 tested, about 20% had one in any assay. Calls of active or inactive are those of the source. The calls were made as follows: active = growth percent below 10; inactive = the rest.
quantity_measured: growth

Observe how each entry below is paired with its result.
| compound | growth |
| --- | --- |
| O=C(O)c1cccc2c1C(=O)N(c1ccc3c(c1)Cc1ccccc1-3)C2=O | 104% (inactive) |
| CC1(C)[C@@H](O)CC[C@]2(C)[C@H]3CC[C@@H]4[C@H]5[C@H](C(=O)/C=C/c6ccc(C(F)(F)F)cc6)CC[C@]5(CO)CC[C@@]4(C)[C@]3(C)CC[C@@H]12 | 28.4% (inactive) |
| O=C1Nc2ccccc2/C1=C/c1cn(CCCn2c3ccccc3c(=O)c3ccccc32)c2ccccc12 | 98.4% (inactive) |

Give measured growth for every item shown.
1. CN1CCN(c2nc(-c3cccc4ccccc34)nc3sc4c(c23)CCCCCC4)CC1
2. CCCCC[C@H]1C/C=C2/C(=O)C(Cl)=C[C@@H]2C/C=C\CCCC(=O)O[C@@H](CCCCC)C/C=C2/C(=O)C(Cl)=C[C@@H]2C/C=C\CCCC(=O)O1
3. O=C(N/N=C\c1ccccc1O)C1CC1

result:
1: 75.2% (inactive); 2: 0.433% (active); 3: 83.7% (inactive)

Give measured growth for every item shown.
1. COc1ccc(C2c3ccccc3NC(=O)N2C2CCN(C)CC2)c(OC)c1 (centres undefined)
2. Cc1ccc(S(=O)(=O)Nc2ccc(-c3cc(-c4cccc(F)c4)c(C#N)c(N)n3)cc2)cc1
3. CCSc1sc(-c2ccc(C)cc2)nc1[P+](c1ccccc1)(c1ccccc1)c1ccccc1

result:
106% (inactive)
7.69% (active)
8.77% (active)
